For each record, write down the corresponding Kd.
Target: UniProtKB P51617
Sequence (P51617 whole entry): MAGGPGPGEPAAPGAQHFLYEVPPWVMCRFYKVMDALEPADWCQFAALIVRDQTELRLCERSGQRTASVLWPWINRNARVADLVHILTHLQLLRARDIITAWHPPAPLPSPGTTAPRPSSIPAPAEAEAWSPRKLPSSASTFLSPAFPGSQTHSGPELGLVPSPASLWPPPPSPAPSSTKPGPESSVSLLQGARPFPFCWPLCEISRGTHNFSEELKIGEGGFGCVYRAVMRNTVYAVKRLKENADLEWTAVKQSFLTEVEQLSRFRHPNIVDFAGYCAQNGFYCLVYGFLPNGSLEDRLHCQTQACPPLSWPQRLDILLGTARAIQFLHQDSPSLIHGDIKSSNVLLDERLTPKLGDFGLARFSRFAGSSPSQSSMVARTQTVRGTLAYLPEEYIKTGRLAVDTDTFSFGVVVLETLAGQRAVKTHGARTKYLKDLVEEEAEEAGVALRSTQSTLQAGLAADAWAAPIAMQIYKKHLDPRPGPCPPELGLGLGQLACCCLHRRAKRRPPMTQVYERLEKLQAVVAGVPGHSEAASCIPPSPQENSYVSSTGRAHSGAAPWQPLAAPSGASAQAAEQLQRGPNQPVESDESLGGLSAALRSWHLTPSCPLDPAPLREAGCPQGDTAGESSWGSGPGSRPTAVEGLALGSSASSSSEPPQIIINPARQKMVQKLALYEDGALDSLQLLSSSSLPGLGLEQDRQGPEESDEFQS
The source made the active and inactive calls.

(Q) For the compound shown here, COc1cc2nccc(Oc3ccc(NC(=O)C4(C(=O)Nc5ccc(F)cc5)CC4)cc3)c2cc1OC [CABOZANTINIB] , give the reported Kd.
(A) > 30 µM (inactive)

(Q) Now this one: CNC(=O)c1cc(COc2nnc(Nc3ccc(Cl)cc3)c3ccoc23)ccn1
(A) > 30 µM (inactive)

(Q) Note, next up: CC[C@@](C)(Nc1ccnc(-c2c[nH]c3ncccc23)n1)C(=O)NCC(F)(F)F
(A) > 30 µM (inactive)

----------
Molecular target: Calcium/calmodulin-dependent protein kinase type II subunit gamma (Homo sapiens, UniProt Q13555); note: in the data inactive means no Kd found up to 30 µM
Sequence (Q13555 whole entry): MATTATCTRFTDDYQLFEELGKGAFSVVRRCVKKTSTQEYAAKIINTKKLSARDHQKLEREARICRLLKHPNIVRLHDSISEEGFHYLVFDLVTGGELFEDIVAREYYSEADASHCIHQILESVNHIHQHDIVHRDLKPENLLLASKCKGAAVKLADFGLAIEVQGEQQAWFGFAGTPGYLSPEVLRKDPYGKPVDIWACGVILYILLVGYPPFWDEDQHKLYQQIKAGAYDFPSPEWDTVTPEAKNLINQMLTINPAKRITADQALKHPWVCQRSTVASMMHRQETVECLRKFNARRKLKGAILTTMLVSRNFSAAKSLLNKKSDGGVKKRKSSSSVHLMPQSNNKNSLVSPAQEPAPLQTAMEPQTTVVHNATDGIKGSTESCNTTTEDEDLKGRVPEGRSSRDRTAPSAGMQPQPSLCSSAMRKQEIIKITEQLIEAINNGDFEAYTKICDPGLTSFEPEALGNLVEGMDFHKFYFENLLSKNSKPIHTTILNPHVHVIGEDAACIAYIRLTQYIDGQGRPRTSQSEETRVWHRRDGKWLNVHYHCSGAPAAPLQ
Activity calls are given as the source filed them.
Would you mind answering with one of these outcomes? Y = active, N = inactive

(Q) Answer briefly: the call reported for CN1CCN(c2nc(C3=C(c4c[nH]c5ccccc45)C(=O)NC3=O)c3ccccc3n2)CC1 in this assay.
(A) N

(Q) Next: CCN(CCCOc1ccc2c(Nc3cc(CC(=O)Nc4cccc(F)c4)n[nH]3)ncnc2c1)CCOP(=O)(O)O
(A) N

(Q) What about this molecule? CC(C)CC(=O)Nc1[nH]nc2c1CN(C(=O)C1CCN(C)CC1)C2(C)C
(A) N

(Q) Now consider CCc1nc(C(N)=O)c(Nc2ccc(N3CCC(N4CCN(C)CC4)CC3)c(OC)c2)nc1NC1CCOCC1 and answer again.
(A) Y

(Q) Queued: C[C@@H]1COC(Nc2ccc3ncnc(Nc4ccc(OCc5nccs5)c(Cl)c4)c3c2)=N1
(A) N

(Q) Now try c1cc(OCCN2CCCCC2)cc(-c2n[nH]c3ccc(-c4nc[nH]n4)cc23)c1 .
(A) N

(Q) Also check COc1ccc(-c2ccc3ncc4c(c3c2)n(-c2ccc(N3CCNCC3)c(C(F)(F)F)c2)c(=O)n4C)cn1 [BGT-226 FREE BASE]
(A) N

(Q) Next molecule: COc1cc(Nc2ncc(F)c(Nc3ccc4c(n3)N(COP(=O)(O)O)C(=O)C(C)(C)O4)n2)cc(OC)c1OC
(A) N

(Q) Param item: O=C(Nc1ccc(OC(F)(F)F)cc1)c1sccc1NCc1ccnc2ccccc12
(A) N

(Q) Again, but for Cc1c(Cn2c(C)nc3c(C(=O)O)cc(N4CCOCC4)cc32)cccc1C(F)(F)F
(A) N

(Q) Entry to check: Cc1cc(Nc2nc(N[C@@H](C)c3ncc(F)cn3)ncc2Cl)n[nH]1
(A) N

(Q) Now consider CC(C)(O)CC(=O)NCCn1ccc2ncnc(Nc3ccc(Oc4cccc(C(F)(F)F)c4)c(Cl)c3)c21 and answer again.
(A) N

(Q) Continue with COc1cccc(Nc2ncnn3ccc(CN4CC[C@@H](N)[C@H](O)C4)c23)c1
(A) Y

(Q) Param item: O=C(NC[C@H](O)CO)c1ccncc1Nc1ccc(I)cc1F
(A) N

(Q) // query: FC(F)(F)c1ccc(CNc2ccc(Cc3c[nH]c4ncc(Cl)cc34)cn2)cn1
(A) N

----------
Target: Ephrin type-B receptor 2 (Homo sapiens, UniProt P29323); note: in the data inactive means no Kd found up to 30 µM
Sequence (P29323 whole entry): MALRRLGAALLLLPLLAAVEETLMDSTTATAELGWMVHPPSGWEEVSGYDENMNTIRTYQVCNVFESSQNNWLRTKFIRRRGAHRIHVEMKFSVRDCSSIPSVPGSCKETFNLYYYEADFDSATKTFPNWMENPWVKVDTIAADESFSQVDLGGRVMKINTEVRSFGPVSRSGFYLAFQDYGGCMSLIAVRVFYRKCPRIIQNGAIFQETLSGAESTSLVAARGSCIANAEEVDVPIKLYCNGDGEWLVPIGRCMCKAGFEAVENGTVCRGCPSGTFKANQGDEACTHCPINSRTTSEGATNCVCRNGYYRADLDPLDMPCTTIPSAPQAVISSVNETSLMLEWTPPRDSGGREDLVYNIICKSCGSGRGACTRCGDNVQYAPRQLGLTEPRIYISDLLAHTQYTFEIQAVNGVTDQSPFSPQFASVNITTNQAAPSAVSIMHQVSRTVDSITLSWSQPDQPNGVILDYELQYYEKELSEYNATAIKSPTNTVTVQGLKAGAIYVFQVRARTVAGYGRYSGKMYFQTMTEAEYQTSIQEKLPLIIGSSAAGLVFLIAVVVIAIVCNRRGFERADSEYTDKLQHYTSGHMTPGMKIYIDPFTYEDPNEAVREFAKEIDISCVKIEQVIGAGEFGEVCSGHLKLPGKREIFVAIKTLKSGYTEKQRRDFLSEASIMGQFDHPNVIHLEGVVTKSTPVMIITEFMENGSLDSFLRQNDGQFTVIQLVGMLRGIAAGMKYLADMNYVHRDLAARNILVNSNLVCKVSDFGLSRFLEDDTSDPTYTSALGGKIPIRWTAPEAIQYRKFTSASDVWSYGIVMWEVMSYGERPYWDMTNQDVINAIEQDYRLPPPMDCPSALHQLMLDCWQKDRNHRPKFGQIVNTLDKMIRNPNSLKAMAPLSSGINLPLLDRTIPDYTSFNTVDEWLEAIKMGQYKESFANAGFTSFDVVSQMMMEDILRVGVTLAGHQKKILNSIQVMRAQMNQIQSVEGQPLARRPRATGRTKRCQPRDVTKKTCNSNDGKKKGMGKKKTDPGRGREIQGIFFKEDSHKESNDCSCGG
Active and inactive are the calls of the source.
The reply should name one outcome from True (active), False (inactive)

(Q) Which outcome was entered for the molecule CNC(=O)c1cc(COc2nnc(Nc3ccc(Cl)cc3)c3ccoc23)ccn1 [TELATINIB] in this test?
(A) False

(Q) Please do the same for Cc1c(Cn2c(C)nc3c(C(=O)O)cc(N4CCOCC4)cc32)cccc1C(F)(F)F [GSK-2636771] as well.
(A) False

(Q) Input Cn1cc(-c2[nH]c3cc(NC(=O)[C@H](N)C4CCCCC4)cc4c3c2C=NNC4=O)cn1
(A) False

(Q) Item: S=C(NCc1ccc2c(c1)OCO2)N1CCN(c2ncnc3c2oc2ccccc23)CC1 [AMUVATINIB]
(A) False

(Q) Follow-up item: O[C@H]1CC[C@H](Nc2ncc3nc(Nc4c(F)cc(F)cc4F)n([C@H]4CCOC4)c3n2)CC1 [TANZISERTIB]
(A) False

(Q) Another: C=CC(=O)Nc1cccc(Nc2nc(Nc3ccc(N4CCN(C(C)=O)CC4)cc3OC)ncc2C(F)(F)F)c1 [ROCILETINIB]
(A) False

(Q) What about O=C(O)c1ccc2c(c1)nc(Nc1cccc(Cl)c1)c1ccncc12 [SILMITASERTIB] ?
(A) False

(Q) Request: COc1ccc2c(OCc3nnc4ccc(-c5ccccc5)nn34)ccnc2c1 [AMG-208]
(A) False

(Q) And then O=c1[nH]c([C@@H]2CCCN2)nc2c1oc1ccc(Cl)cc12 , what is it?
(A) False

(Q) Same thing, different molecule: COc1cccc2cc(-c3nc([C@H]4CC[C@H](C(=O)O)CC4)n4ncnc(N)c34)[nH]c12 [OSI-027]
(A) False

(Q) Please answer likewise for CN1CCN(c2nc(C3=C(c4c[nH]c5ccccc45)C(=O)NC3=O)c3ccccc3n2)CC1 [SOTRASTAURIN]
(A) False

(Q) Okay, and COc1cc2ncnc(Nc3ccc(O)cc3)c2cc1OC [WHI-P131] ?
(A) False

(Q) Try this molecule next: C[C@@H]1COC(Nc2ccc3ncnc(Nc4ccc(OCc5nccs5)c(Cl)c4)c3c2)=N1 [VARLITINIB]
(A) False

(Q) One more molecule: NC[C@@](O)(c1ccc(Cl)cc1)c1ccc(-c2cn[nH]c2)cc1 [AT-13148]
(A) False

(Q) What do we get for N#CCNC(=O)c1ccc(-c2ccnc(Nc3ccc(N4CCOCC4)cc3)n2)cc1 [MOMELOTINIB] ?
(A) False

(Q) Further, for O=C(NOC[C@H](O)CO)c1ccc(F)c(F)c1Nc1ccc(I)cc1F [MIRDAMETINIB] ?
(A) False

(Q) Could you do the same for Cc1c(NC(=O)OC[C@@H]2COCCN2)cn2ncnc(Nc3ccc4c(cnn4Cc4cccc(F)c4)c3)c12 [AC-480] , please?
(A) False

(Q) Now consider O=C(NC[C@H](O)CO)c1ccncc1Nc1ccc(I)cc1F [PIMASERTIB] .
(A) False

(Q) Check COc1cc2nccc(Oc3ccc(NC(=O)C4(C(=O)Nc5ccc(F)cc5)CC4)cc3)c2cc1OC [CABOZANTINIB] too.
(A) False

(Q) Would you mind doing CCOc1ccn(-c2ccc(F)cc2)c(=O)c1C(=O)Nc1ccc(Oc2ccnc(N)c2Cl)c(F)c1 [BMS-777607] as well?
(A) False

(Q) # repeat for CC(C)(O)CC(=O)NCCn1ccc2ncnc(Nc3ccc(Oc4cccc(C(F)(F)F)c4)c(Cl)c3)c21 [TAK-285]
(A) False

(Q) Now the molecule Cn1c(=O)n(-c2ccc(C(C)(C)C#N)cc2)c2c3cc(-c4cnc5ccccc5c4)ccc3ncc21 [DACTOLISIB]
(A) False

(Q) Ok, now CN(c1ncccc1CNc1nc(Nc2ccc3c(c2)CC(=O)N3)ncc1C(F)(F)F)S(C)(=O)=O [PF-00562271]
(A) False

(Q) Do the same for CC1(COc2ccc3c(c2)ncn3-c2ccc3cccc(N4CCC(N)CC4)c3n2)COC1 [CRENOLANIB] please
(A) False

(Q) // next record COc1cc2ncnc(Nc3ccc(F)c(Cl)c3)c2cc1NC(=O)/C=C/CN1CCCCC1 [DACOMITINIB ANHYDROUS]
(A) False

(Q) And the next one, C[C@]1(O)C[C@@H](c2nc(-c3ccc4ccc(-c5ccccc5)nc4c3)c3c(N)nccn32)C1 [LINSITINIB] ?
(A) False

(Q) Let us now turn to Cc1cc(Nc2nc(N[C@@H](C)c3ncc(F)cn3)ncc2Cl)n[nH]1 [AZD-1480]
(A) False

(Q) Can you check CNC(=O)c1ccc(Nc2ncc(C(F)(F)F)c(NCc3nccnc3N(C)S(C)(=O)=O)n2)cc1 [DEFACTINIB] next?
(A) False

(Q) Please give the result for C#Cc1cccc(Nc2ncnc3cc4c(cc23)OCCOCCOCCO4)c1 [ICOTINIB] too.
(A) False

(Q) # iterate: Cc1cc(-c2cc(OC(=O)c3ccccc3)ccc2Cl)cc2nnc(Nc3ccc(OCCN4CCCC4)cc3)nc12 [TG100-801]
(A) True

(Q) Next molecule up: Cc1cc(C(=O)Nc2cc(Oc3ccc4nc(NC(=O)C5CC5)cn4n3)ccc2C)n(C)n1 [TAK-593]
(A) False

(Q) And CCc1cc2c(cc1N1CCC(N3CCOCC3)CC1)C(C)(C)c1[nH]c3cc(C#N)ccc3c1C2=O [ALECTINIB] ?
(A) False

(Q) Another molecule to look at: c1cc(OCCN2CCCCC2)cc(-c2n[nH]c3ccc(-c4nc[nH]n4)cc23)c1 [CC-401]
(A) False
